Reference source: patent US9855270B2

Tested on: MCF-7 cells stably expressing EF1 HA-ER-α wild-type
assay overview: MCF-7 Stable Cell Line Viability (EF1 HA-ER-α series)
Format: cell-based
measurement context: EF1 HA-ER-α Wild-type; Antagonist Mode; +E2; read-out: Potency (EC50; nM)
readout label: EC50 (nM)
State just the number; it will be interpreted in nM.

Find the recorded EC50 belonging to CCC(=C(c1ccc(O)cc1)c1ccc(OCCN(C)C)cc1)c1ccccc1 [4-Hydroxytamoxifen] and report it.
5.16

---

Tested on: MCF-7 cells stably expressing UbC HA-ER-α L536R
assay overview: cells
Assay type: cell-based
measurement context: UbC HA-ER-α L536R; Antagonist Mode; +E2; Day 5 relative to Day 0
readout label: Efficacy (Emax)
Reply with the value as a number alone.

- compound: "CCC(=C(c1ccc(O)cc1)c1ccc(OCCN(C)C)cc1)c1ccccc1 [4-Hydroxytamoxifen]"
  system: "MCF-7 cells stably expressing UbC HA-ER-α L536R"
  Efficacy (Emax): 2.34

Given the entry CC/C(=C(/c1ccc(/C=C/C(=O)O)cc1)c1ccc2[nH]ncc2c1)c1ccc(F)cc1Cl , what Efficacy (Emax) was observed with MCF-7 cells stably expressing UbC HA-ER-α L536R?
1.71

---

System: MCF-7 cells stably expressing EF1 HA-ER-α Y537N
assay overview: cells
Format: cell-based
measurement context: EF1 HA-ER-α Y537N; Agonist Mode; −E2; Day 5 relative to Day 0
Sorting guide: entries reporting Efficacy (Emax) beneath 0.7 go in the met pile, the rest go in the not met pile.

These solved cases illustrate the format of a correct answer.
- compound: "CC/C(=C(/c1ccc(/C=C/C(=O)O)cc1)c1ccc2[nH]ncc2c1)c1ccc(F)cc1Cl"
  class name: "not met"
- compound: "C[C@]12CC[C@@H]3c4ccc(O)cc4CC[C@H]3[C@@H]1CC[C@@H]2O"
  class name: "not met"

Lab note: confirm whether the reported Efficacy (Emax) for this compound is below 0.7, equality not counting. compound: C[C@]12CC[C@@H]3c4ccc(O)cc4C[C@@H](CCCCCCCCC[S+]([O-])CCCC(F)(F)C(F)(F)F)[C@H]3[C@@H]1CC[C@@H]2O (some centres unmarked)
met

Lab note: confirm whether the reported Efficacy (Emax) for this compound is below 0.7, equality not counting. compound: CCC(=C(c1ccc(O)cc1)c1ccc(OCCN(C)C)cc1)c1ccccc1 [4-Hydroxytamoxifen]
not met

Lab note: confirm whether the reported Efficacy (Emax) for this compound is below 0.7, equality not counting. compound: CC1=C(c2cccc(O)c2)[C@H](c2ccc(OCCN3CC(CF)C3)cc2)Oc2ccc(O)cc21
not met

---

System: MCF-7 cells stably expressing EF1 HA-ER-α L536P
assay overview: cells
Type: cell-based
measurement context: Homo sapiens, MCF7, read-out: Potency (EC50; nM), EF1 HA-ER-α L536P; Agonist Mode; −E2
readout label: EC50 (nM)
State just the number; it will be interpreted in nM.

Find the recorded EC50 belonging to C[C@]12CC[C@@H]3c4ccc(O)cc4C[C@@H](CCCCCCCCC[S+]([O-])CCCC(F)(F)C(F)(F)F)[C@H]3[C@@H]1CC[C@@H]2O (stereo partly shown) and report it.
4.51

---

System: MCF-7 cells stably expressing EF1 HA-ER-α E380Q
assay overview: cells
Format: cell-based
measurement context: EF1 HA-ER-α E380Q; Agonist Mode; −E2; Day 5 relative to Day 0
readout label: Efficacy (Emax)
Reply with the value as a number alone.

Find the recorded Efficacy (Emax) belonging to CC1=C(c2cccc(O)c2)[C@H](c2ccc(OCCN3CC(CF)C3)cc2)Oc2ccc(O)cc21 and report it.
2.43

Find the recorded Efficacy (Emax) belonging to C[C@]12CC[C@@H]3c4ccc(O)cc4C[C@@H](CCCCCCCCC[S+]([O-])CCCC(F)(F)C(F)(F)F)[C@H]3[C@@H]1CC[C@@H]2O (stereo partly shown) and report it.
2.50

Find the recorded Efficacy (Emax) belonging to CCC(=C(c1ccc(O)cc1)c1ccc(OCCN(C)C)cc1)c1ccccc1 [4-Hydroxytamoxifen] and report it.
5.17

Find the recorded Efficacy (Emax) belonging to CC/C(=C(/c1ccc(/C=C/C(=O)O)cc1)c1ccc2[nH]ncc2c1)c1ccc(F)cc1Cl and report it.
3.35

---

Test system: MCF-7 cells stably expressing EF1 HA-ER-α L536P
assay overview: cells
Assay type: cell-based
measurement context: EF1 HA-ER-α L536P; Agonist Mode; −E2; read-out: Potency (EC50; nM)
readout label: EC50
Lab note: write values as number then unit, every time.

Find the recorded EC50 belonging to CCC(=C(c1ccc(O)cc1)c1ccc(OCCN(C)C)cc1)c1ccccc1 [4-Hydroxytamoxifen] and report it.
4.39 nM

---

System: MCF-7 cells stably expressing EF1 HA-ER-α E380Q
assay overview: cells
Assay type: cell-based
measurement context: Homo sapiens, MCF7, read-out: Potency (EC50; nM), EF1 HA-ER-α E380Q; Antagonist Mode; −E2 (Table 27)
readout label: EC50 (nM)
State just the number; it will be interpreted in nM.

- compound: "CC1=C(c2cccc(O)c2)[C@H](c2ccc(OCCN3CC(CF)C3)cc2)Oc2ccc(O)cc21"
  system: "MCF-7 cells stably expressing EF1 HA-ER-α E380Q"
  EC50, nM: 3.76

Then this compound:
Find the recorded EC50 belonging to C[C@]12CC[C@@H]3c4ccc(O)cc4C[C@@H](CCCCCCCCC[S+]([O-])CCCC(F)(F)C(F)(F)F)[C@H]3[C@@H]1CC[C@@H]2O (some centres unmarked) and report it.
4.36

---

Test system: MCF-7 cells stably expressing UbC HA-ER-α L536R
assay overview: cells
Format: cell-based
measurement context: UbC HA-ER-α L536R; Antagonist Mode; +E2; Day 5 relative to Day 0
Collected Efficacy (Emax) values appear next to each entry.
Reply with the value as a number alone.

Reference set (2 entries):
- compound: "CC1=C(c2cccc(O)c2)[C@H](c2ccc(OCCN3CC(CF)C3)cc2)Oc2ccc(O)cc21 [Compound 4-23]"
  Efficacy (Emax): 1.73
- compound: "C[C@]12CC[C@@H]3c4ccc(O)cc4C[C@@H](CCCCCCCCC[S+]([O-])CCCC(F)(F)C(F)(F)F)[C@H]3[C@@H]1CC[C@@H]2O (stereo partly drawn) [Fulvestrant]"
  Efficacy (Emax): 1.71

Then this compound:
Given the entry C[C@]12CC[C@@H]3c4ccc(O)cc4CC[C@H]3[C@@H]1CC[C@@H]2O [17β-Estradiol] , what Efficacy (Emax) was observed with MCF-7 cells stably expressing UbC HA-ER-α L536R?
5.92
